Measured GI50, listed per entry for reference.
# Test system: SK-MEL-2 melanoma
# protocol.text: NCI tumour cell line growth inhibition, 48 h
measured.quantity: GI50

>  <molecule>
CC(C)=C[C@@H]1C[C@H](C)[C@H]2CC[C@H](C)c3c(O)c(OC4OCC(O)C(O)C4O)c(C)c1c32 (some centres undefined)

>  <result>
20.8 µM

$$$$
>  <molecule>
O=c1[nH]c2c3ccncc3cc(-c3cccc(Cl)c3)c2c2cnccc12

>  <result>
47.9 µM

$$$$
>  <molecule>
CCN1C2=C(SC(=S)C1=C1SC(C(=O)OC)=C(C(=O)OC)S1)SC(=Nc1ccc(OC)cc1)C2=O

>  <result>
2.09 µM

$$$$
>  <molecule>
CCN1CCN(Cc2ccc(NC(=O)c3nc4ccc5[nH]ncc5c4c4c3CCCC4)cc2C(F)(F)F)CC1

>  <result>
0.85 µM

$$$$

###

# Tested on: M14 melanoma
# protocol.text: NCI tumour cell line growth inhibition, 48 h
measured.quantity: GI50

>  <compound>
O=c1[nH]c2c3ccncc3cc(-c3cccc(Cl)c3)c2c2cnccc12

>  <result>
> 100000 nM

$$$$
>  <compound>
N=C(N)c1ccc(-c2ccc(-c3ccc(F)cc3)s2)nc1

>  <result>
1790 nM

$$$$
>  <compound>
COc1cccc(-n2ncc3c(N/N=C/c4cccc(F)c4)ncnc32)c1

>  <result>
11300 nM

$$$$
>  <compound>
O=c1c2[nH]ccc2nc2n1CCS2

>  <result>
> 100000 nM

$$$$
>  <compound>
CNC[C@@H](NC(=O)c1ccc(-c2nc([C@H]3CC[C@H](O)[C@@H](F)C3)cnc2N)cc1F)c1cc(F)cc(Br)c1

>  <result>
15200 nM

$$$$
>  <compound>
COC(=O)[C@]12CC[C@@H](C(=O)/C=C/c3cccnc3)[C@@H]1[C@H]1CC[C@@H]3[C@@]4(C)C/C(=C/c5cccnc5)C(=O)C(C)(C)[C@@H]4CC[C@@]3(C)[C@]1(C)CC2

>  <result>
310 nM

$$$$
>  <compound>
Cc1cc(-c2ccc(C3C(C#N)=C(N)Oc4c3c(=O)oc3ccccc43)cc2)cnc1F (configuration not stated)

>  <result>
> 100000 nM

$$$$
>  <compound>
COc1ccc(-c2cn(-c3cccc(C(=O)/C=C/c4cc(OC)c(OC)c(OC)c4)c3)c(=O)[nH]2)cc1

>  <result>
1850 nM

$$$$
>  <compound>
COc1ccc2[nH]c(=O)c(/C=C/C(=O)c3ccccc3OC)cc2c1

>  <result>
278 nM

$$$$
>  <compound>
CCN1C2=C(SC(=S)C1=C1SC(C(=O)OC)=C(C(=O)OC)S1)SC(=Nc1ccc(OC)cc1)C2=O

>  <result>
1750 nM

$$$$
>  <compound>
CN1CCN(Cc2ccc(NC(=O)c3cncc(C#Cc4cnc5ccc(Cl)nn45)c3)cc2C(F)(F)F)CC1

>  <result>
590 nM

$$$$
>  <compound>
O=C(c1cccs1)c1c(C(F)(F)F)n([O-])c2ccc(Cl)cc2[n+]1=O

>  <result>
322 nM

$$$$
>  <compound>
c1ccc(-c2nc([P+](c3ccccc3)(c3ccccc3)c3ccccc3)c(N3CCOCC3)o2)cc1

>  <result>
1560 nM

$$$$
>  <compound>
O=C(Cc1ccc(OCc2ccccc2)cc1)NCc1ccc2c(c1)OCO2

>  <result>
7710 nM

$$$$
>  <compound>
Cc1oc2nc[nH]c(=O)c2c1C(=O)/C=C/c1ccc(Br)cc1

>  <result>
2140 nM

$$$$
>  <compound>
C=C1C(=O)O[C@H]2[C@H]1CC/C(COC(=O)NCc1c[nH]c3ccc(Br)cc13)=C\CC[C@@]1(C)O[C@@H]21

>  <result>
1350 nM

$$$$
>  <compound>
CC(C)CC(=O)[O-].CC(C)CC(=O)[O-].N.N.N.N.[Co+3].[O-][Cl+3]([O-])([O-])O.[O-][Cl+3]([O-])([O-])[O-]

>  <result>
> 100000 nM

$$$$

###

# System: A549 NSCLC
# protocol.text: NCI tumour cell line growth inhibition, 48 h

>  <compound>
O=C(Nc1ccc(-n2ccc3c(NC(=O)c4ccccc4)ncnc32)cc1)c1ccc(Cl)c(C(F)(F)F)c1

>  <study.target>
A549 NSCLC

>  <TGI>
12.6 µM

$$$$
>  <compound>
O=c1[nH]nc(NCCc2ccccc2)c2nnn(Cc3ccccc3)c12

>  <study.target>
A549 NSCLC

>  <TGI>
> 100 µM

$$$$
>  <compound>
CCOP(=O)(OCC)/C(C#N)=C/c1nccn1C

>  <study.target>
A549 NSCLC

>  <TGI>
> 100 µM

$$$$
>  <compound>
CC1C=CC(O)[C@]2(CO)CC3(CCC12)OCCO3 (stereo not given in full)

>  <study.target>
A549 NSCLC

>  <TGI>
> 100 µM

$$$$
>  <compound>
O=c1oc2ccccc2c(O)c1C(C/C(CCN1CCCC1)=N/O)c1ccccc1 (stereo not given)

>  <study.target>
A549 NSCLC

>  <TGI>
> 100 µM

$$$$
>  <compound>
O=C1OC(CC(=O)c2ccc(Cl)cc2)C(Cl)=C1Cl (stereo not given)

>  <study.target>
A549 NSCLC

>  <TGI>
> 100 µM

$$$$
>  <compound>
O=c1ccc2[n+]([O-])c3ccc(O)cc3oc-2c1

>  <study.target>
A549 NSCLC

>  <TGI>
20.6 µM

$$$$
>  <compound>
CC(C)c1nc(Cl)nc(Cl)c1Cl

>  <study.target>
A549 NSCLC

>  <TGI>
18.6 µM

$$$$
>  <compound>
O=C(Cc1ccc(OCc2ccccc2)cc1)NCc1ccc2c(c1)OCO2

>  <study.target>
A549 NSCLC

>  <TGI>
> 100 µM

$$$$
>  <compound>
CC(=O)O[C@H]1C(=O)[C@@]2(C)[C@H]([C@H](OC(=O)C3CCCCC3)[C@]3(O)C[C@H](OC(=O)[C@H](O)[C@@H](NC(=O)OC(C)(C)C)c4ccccc4)C(C)=C1C3(C)C)[C@]1(OC(C)=O)CO[C@@H]1C[C@@H]2O

>  <study.target>
A549 NSCLC

>  <TGI>
> 12.5 µM

$$$$
>  <compound>
CC1(C)C2CCC(=O)C1C(OCc1ccccc1)C2 (stereo not given)

>  <study.target>
A549 NSCLC

>  <TGI>
> 100 µM

$$$$
>  <compound>
C=Cc1ccccc1C1C(C(=O)OCC)=C(C)N=C2OC(C(=O)OC)C(=O)N21 (stereo not given)

>  <study.target>
A549 NSCLC

>  <TGI>
> 100 µM

$$$$
>  <compound>
Nc1ncnc2c1ncn2C1OC(CO)C2OC21 (stereo not given)

>  <study.target>
A549 NSCLC

>  <TGI>
> 100 µM

$$$$
>  <compound>
COc1nc(=O)n(C2CC(F)C(CO)O2)cc1C (stereo not given)

>  <study.target>
A549 NSCLC

>  <TGI>
> 100 µM

$$$$
>  <compound>
CC/C=C/c1cc2c(c3[nH]ccc13)[C@@H](C)CC2C (stereo not given in full) (tested in a mixture with another compound)

>  <study.target>
A549 NSCLC

>  <TGI>
39.1 µM

$$$$
>  <compound>
Cc1cccc(-c2cc(=O)c3cc(C)c(C)c(C(=O)O)c3o2)c1

>  <study.target>
A549 NSCLC

>  <TGI>
> 100 µM

$$$$
>  <compound>
N#CC(C#N)=C1/C(=C/C=C/C=C/C=C/c2ccc(N3CCCCC3)s2)S(=O)(=O)c2ccccc21

>  <study.target>
A549 NSCLC

>  <TGI>
> 100 µM

$$$$
>  <compound>
CCC1(CN(C)C)CC/C(=C\c2ccc(OC)cc2)C1=O (stereo not given)

>  <study.target>
A549 NSCLC

>  <TGI>
> 100 µM

$$$$
>  <compound>
C/C(=C1/N=C(c2cc([N+](=O)[O-])ccc2Cl)N(c2ccc(Br)cc2)C1=O)c1cc2ccccc2oc1=O

>  <study.target>
A549 NSCLC

>  <TGI>
> 100 µM

$$$$
>  <compound>
CC(=O)c1cccc(NC(=O)C(=O)C(C(=O)NN)c2ccccc2)c1 (stereo not given)

>  <study.target>
A549 NSCLC

>  <TGI>
> 100 µM

$$$$
>  <compound>
Cc1cc(C)nc(NS(=O)(=O)c2ccc(Nc3c4ccccc4nc4c(C(=O)N5CCN(CCO)CC5)ccc(Cl)c34)cc2)n1

>  <study.target>
A549 NSCLC

>  <TGI>
> 100 µM

$$$$
>  <compound>
CN(C)CCNC(=O)c1cccc(NC(=O)c2ccccc2)c1[N+](=O)[O-]

>  <study.target>
A549 NSCLC

>  <TGI>
> 100 µM

$$$$
>  <compound>
OC(Cc1ccc2ccccc2n1)(C(F)(F)F)C(F)(F)F

>  <study.target>
A549 NSCLC

>  <TGI>
> 10 µM

$$$$
>  <compound>
NC(N)=NS(=O)(=O)c1ccc(NC(=O)c2cccc3cc4ccccc4nc23)cc1

>  <study.target>
A549 NSCLC

>  <TGI>
> 100 µM

$$$$
>  <compound>
Cn1c2c(c3ccccc31)CCN(CCCN1CCN(c3cccc(Cl)c3)CC1)C2=O

>  <study.target>
A549 NSCLC

>  <TGI>
> 100 µM

$$$$
>  <compound>
CN1C(=O)C23CC4(C56CC78SSC(CO)(C(=O)N7C5Nc5ccccc56)N(C)C8=O)c5ccccc5NC4N2C(=O)C1(CO)SS3 (stereo not given)

>  <study.target>
A549 NSCLC

>  <TGI>
0.283 µM

$$$$
>  <compound>
N=c1c2ccccc2nc2oc3ccccc3n12

>  <study.target>
A549 NSCLC

>  <TGI>
> 100 µM

$$$$
>  <compound>
O=C(C1CC1)N1CC[C@@H](Cc2n[nH]c(=O)n2-c2ccc(-c3ccc4occc4c3)cc2)C1

>  <study.target>
A549 NSCLC

>  <TGI>
> 100 µM

$$$$
>  <compound>
CCOC(=O)/C=C(\C)c1ccc(Cl)cc1

>  <study.target>
A549 NSCLC

>  <TGI>
> 100 µM

$$$$
>  <compound>
CNc1nc(N)cc(=O)[nH]1

>  <study.target>
A549 NSCLC

>  <TGI>
> 100 µM

$$$$
>  <compound>
C=C[C@]1(C)C[C@@H](OC(=O)CO)[C@@]2(C)[C@H](C)CC[C@]3(CCC(=O)[C@H]32)[C@@H](C)[C@@H]1O

>  <study.target>
A549 NSCLC

>  <TGI>
> 100 µM

$$$$
>  <compound>
COC(=O)CCC1=C(C)C(C)=N/C1=C\c1[nH]c(-c2ccc[nH]2)cc1OC

>  <study.target>
A549 NSCLC

>  <TGI>
10.2 µM

$$$$
>  <compound>
COc1ccc(-c2cn(-c3cccc(C(=O)/C=C/c4cc(OC)c(OC)c(OC)c4)c3)c(=O)[nH]2)cc1

>  <study.target>
A549 NSCLC

>  <TGI>
> 100 µM

$$$$
>  <compound>
O=C(O)c1ccccc1/C=C1\Cc2ccccc2C1=O

>  <study.target>
A549 NSCLC

>  <TGI>
> 100 µM

$$$$
>  <compound>
Cc1ccc2cc3cccc(C(=O)NCCN(C)C)c3nc2c1

>  <study.target>
A549 NSCLC

>  <TGI>
5.05 µM

$$$$
>  <compound>
Cc1nn(CN2CCN(C)CC2)c(=S)n1/N=C/c1ccc(-c2ccc(Cl)cc2Cl)o1

>  <study.target>
A549 NSCLC

>  <TGI>
> 100 µM

$$$$
>  <compound>
COc1ccc2cc(C(=O)NCCCNC(=O)c3ccc4c(OC)c(OC)ccc4c3)ccc2c1OC

>  <study.target>
A549 NSCLC

>  <TGI>
> 100 µM

$$$$
>  <compound>
CC1(C)CC(/C=C2/OC(=O)c3ccccc32)=C(C(N)=O)C(=O)O1

>  <study.target>
A549 NSCLC

>  <TGI>
> 100 µM

$$$$
>  <compound>
COc1cccc(-n2ncc3c(N/N=C/c4cccc(F)c4)ncnc32)c1

>  <study.target>
A549 NSCLC

>  <TGI>
10.6 µM

$$$$
>  <compound>
Cc1n(Cc2ccc3ccccc3c2)c2ccccc2[n+]1Cc1ccc2ccccc2c1

>  <study.target>
A549 NSCLC

>  <TGI>
3.4 µM

$$$$

Origin of values: PubChem BioAssay (NCI)
